Parameter: viability. Scope: all listed entries.
methodDescription: MTT cytotoxicity assay in MRC5 cells
Assay type: cell-based
measurementContext: human, 10 ug/ml

>  <compound>
OCC1CC(n2ccc3c(Cl)ncnc32)C1CO (stereo not drawn) [Example 67B]

>  <viability / %>
86

$$$$
>  <compound>
Nc1nc2c(ncn2C2CC(CO)C2CO)c(=O)[nH]1 (stereo not drawn) [Example 1I]

>  <viability / %>
100

$$$$
>  <compound>
Nc1ncnc2c1ncn2C1CC(CO)C1CO (stereo not drawn) [Example 4C]

>  <viability / %>
90

$$$$

----------
methodDescription: in vitro
measurementContext: monkey, vero cells, MTC (minimum drug concentration causing any cytotoxicity)
measurementLabel: MCC

>  <molecule>
Nc1nc2c(ncn2C2CC(CO)C2CO)c(=O)[nH]1 (stereo not shown)

>  <endpointValue>
320 µg/mL

$$$$

----------
methodDescription: compound cytotoxicity in ATH8 cells (HIV CPE inhibition assay)
Assay type: cell-based
measurementContext: human, read-out: MTC

>  <molecule>
Nc1ncnc2c1ncn2C1CC(CO)C1CO (centres unmarked)

>  <MCC / µg/mL>
3.2

$$$$
>  <molecule>
OCC1CC(n2cnc3c(Cl)ncnc32)C1CO (centres unmarked)

>  <MCC / µg/mL>
10

$$$$

----------
Parameter: cytotoxicity at 1 µM. Scope: all listed entries.
methodDescription: cytotoxicity in ATH8 cells (method of Mitsuya and Broder)
Assay type: cell-based
measurementContext: human, HIV-2 experiment, 1 uM
measurementLabel: cytotoxicity at 1 µM

>  <compound>
Nc1ncnc2c1ncn2C1CC(CO)C1CO (centres unmarked)

>  <endpointValue>
9%

$$$$
>  <compound>
Nc1nc2c(ncn2C2CC(CO)C2CO)c(=O)[nH]1 (centres unmarked)

>  <endpointValue>
11%

$$$$

----------
Parameter: cytotoxicity at 10 µM. Scope: all listed entries.
methodDescription: cytotoxicity in ATH8 cells (method of Mitsuya and Broder)
Format: cell-based
measurementContext: human, HIV-1 experiment, 10 uM
From the text: The method of Mitsuya and Broder (AIDS: Modern Concepts and Therapeutic Challenges; Broder, S. ED.; Marcel Dekker, Inc.; New York, 1987; Chapter 18) was used to determine the in vitro anti-HIV-1 and anti-HIV-2 activity in ATH8 cells of some compounds of the invention. […]

>  <molecule>
Nc1ncnc2c1ncn2C1CC(CO)C1CO (stereo not drawn)

>  <cytotoxicity at 10 µM>
33%

$$$$
>  <molecule>
Nc1nc2c(ncn2C2CC(CO)C2CO)c(=O)[nH]1 (stereo not drawn)

>  <cytotoxicity at 10 µM>
0%

$$$$
>  <molecule>
Nc1nc(N)c2ncn(C3CC(CO)C3CO)c2n1 (stereo not drawn)

>  <cytotoxicity at 10 µM>
4%

$$$$

----------
methodDescription: cytotoxicity in ATH8 cells (method of Mitsuya and Broder)
Format: cell-based
measurementContext: human, HIV-1 experiment, 1 uM
Parameter: cytotoxicity at 1 µM. Scope: all listed entries.

>  <molecule>
Nc1nc2c(ncn2C2CC(CO)C2CO)c(=O)[nH]1 (stereo not drawn)

>  <cytotoxicity at 1 µM [%]>
0

$$$$
>  <molecule>
Nc1nc(N)c2ncn(C3CC(CO)C3CO)c2n1 (stereo not drawn)

>  <cytotoxicity at 1 µM [%]>
0

$$$$
>  <molecule>
Nc1ncnc2c1ncn2C1CC(CO)C1CO (stereo not drawn)

>  <cytotoxicity at 1 µM [%]>
12

$$$$

----------
methodDescription: MTT cytotoxicity assay in MRC5 cells
Assay type: cell-based
measurementContext: human, 3.2 ug/ml

>  <compound>
Nc1nc2c(ncn2C2CC(CO)C2CO)c(=O)[nH]1 (centres unmarked)

>  <viability [%]>
100

$$$$
>  <compound>
Nc1ncnc2c1ncn2C1CC(CO)C1CO (centres unmarked)

>  <viability [%]>
95

$$$$

----------
methodDescription: in vitro
measurementContext: human, human foreskin fibroblasts, MTT Assay, 10 ug/ml

>  <molecule>
Nc1nc2c(ncn2C2CC(CO)C2CO)c(=O)[nH]1 (stereo not shown)

>  <viability (%)>
76

$$$$

----------
System: Herpes simplex type 1 (HSV-1) strain E-377
methodDescription: CPE-inhibition assay, HSV-1 strain E-377 in Vero cells
measurementContext: Human alphaherpesvirus 1, Vero, read-out: ID50 (minimum drug concentration that inhibited the CPE by 50%), HSV-1 (E-377), Vero
Parameter: EC50. Scope: all listed entries.
measurementLabel: EC50 (µg/mL)

>  <compound>
Nc1nc(N)c2ncn(C3CC(CO)C3CO)c2n1 (centres unmarked)

>  <endpointValue>
31.7

$$$$
>  <compound>
Nc1ccn(C2CC(CO)C2CO)c(=O)n1 (centres unmarked)

>  <endpointValue>
10.1

$$$$
>  <compound>
Nc1nc2c(ncn2C2CC(CO)C2CO)c(=O)[nH]1 (centres unmarked)

>  <endpointValue>
1.5

$$$$
>  <compound>
CC(=O)OCC1CC(n2cnc3c(=O)[nH]c(N)nc32)C1COC(C)=O (centres unmarked)

>  <endpointValue>
12.1

$$$$
>  <compound>
Nc1nc(Cl)c2ncn(C3CC(CO)C3CO)c2n1 (centres unmarked)

>  <endpointValue>
83

$$$$

----------
System: A549: Lung carcinoma
methodDescription: cytotoxic activity against cultured tumor cells, A549
Type: cell-based
measurementContext: Homo sapiens, 72 h; A549, 3 days, MTT
Parameter: IC50. Scope: all listed entries.
measurementLabel: IC50 (µg/mL)

>  <compound>
Nc1nc2c(ncn2C2CC(CO)C2CO)c(=O)[nH]1 (centres unmarked)

>  <endpointValue>
94.6

$$$$
>  <compound>
OCC1CC(n2cc(Br)c3c(Cl)ncnc32)C1CO (centres unmarked) [Example 67C]

>  <endpointValue>
18.4

$$$$
>  <compound>
Nc1ncnc2c1ncn2C1CC(CO)C1CO (centres unmarked)

>  <endpointValue>
49.1

$$$$
>  <compound>
Nc1ncnc2c1c(Br)cn2C1CC(CO)C1CO (centres unmarked) [Example 67F]

>  <endpointValue>
3.1

$$$$
>  <compound>
OCC1CC(n2ccc3c(Cl)ncnc32)C1CO (centres unmarked) [Example 67B]

>  <endpointValue>
18.8

$$$$

----------
Parameter: MCC. Scope: all listed entries.
methodDescription: drug cytotoxicity in Vero cells (CPE-inhibition assay)
measurementContext: monkey, vero cells, MTC (minimum drug concentration causing any cytotoxicity), Vero, HSV-2 (MS) experiment
Counter-ions that a name gives are not always drawn.

>  <molecule>
NCC1CC(n2cnc3c(Cl)ncnc32)C1 (stereo not drawn) [Example 21, hydrochloride]

>  <relation>
=

>  <MCC [µg/mL]>
320

$$$$
>  <molecule>
Nc1nc(Cl)c2ncn(C3CC(CO)C3CO)c2n1 (stereo not drawn)

>  <relation>
=

>  <MCC [µg/mL]>
320

$$$$
>  <molecule>
CC(=O)OCC1CC(n2cnc3c(=O)[nH]c(N)nc32)C1COC(C)=O (stereo not drawn)

>  <relation>
=

>  <MCC [µg/mL]>
100

$$$$
>  <molecule>
Nc1nc(N)c2ncn(C3CC(CO)C3CO)c2n1 (stereo not drawn)

>  <relation>
=

>  <MCC [µg/mL]>
320

$$$$
>  <molecule>
Nc1ccn(C2CC(CO)C2CO)c(=O)n1 (stereo not drawn)

>  <relation>
=

>  <MCC [µg/mL]>
320

$$$$
>  <molecule>
Nc1nc2c(nc(Br)n2C2CC(CO)C2CO)c(=O)[nH]1 (stereo not drawn)

>  <relation>
>

>  <MCC [µg/mL]>
320

$$$$
>  <molecule>
OCC1CC(n2cnc3c(Cl)ncnc32)C1 (stereo not drawn)

>  <relation>
=

>  <MCC [µg/mL]>
100

$$$$
>  <molecule>
Nc1nc2c(ncn2C2CC(CO)C2CO)c(=O)[nH]1 (stereo not drawn)

>  <relation>
=

>  <MCC [µg/mL]>
320

$$$$
>  <molecule>
OCC1CC(n2cc(Br)c3c(Cl)ncnc32)C1CO (stereo not drawn) [Example 67C]

>  <relation>
=

>  <MCC [µg/mL]>
32

$$$$

----------
methodDescription: in vitro
measurementContext: human, human foreskin fibroblasts, MTT Assay, 100 ug/ml
measurementLabel: viability (%)

>  <molecule>
Nc1nc2c(ncn2C2CC(CO)C2CO)c(=O)[nH]1 (stereo not shown)

>  <endpointValue>
62

$$$$

----------
methodDescription: in vitro
measurementContext: human, human foreskin fibroblasts, MTT Assay, 32 ug/ml

>  <compound>
Nc1nc2c(ncn2C2CC(CO)C2CO)c(=O)[nH]1 (stereo not shown) [Example 1I]

>  <viability (%)>
72

$$$$

----------
System: Herpes simplex type 2 (HSV-2) strain MS
methodDescription: CPE-inhibition assay, HSV-2 strain MS in Vero cells
measurementContext: Human alphaherpesvirus 2, Vero, read-out: ID50 (minimum drug concentration that inhibited the CPE by 50%), HSV-2 (MS), Vero
Structures can show the parent of a compound that is named as a salt.
Label TRUE when EC50 is strictly below 50 µg/mL; otherwise label FALSE.

>  <compound>
Nc1nc(N)c2ncn(C3CC(CO)C3CO)c2n1 (stereo not drawn)

>  <className>
FALSE

$$$$
>  <compound>
Nc1ncnc2c1ncn2C1CC(CO)C1CO (stereo not drawn)

>  <className>
TRUE

$$$$
>  <compound>
OCC1CC(n2cnc3c(Cl)ncnc32)C1 (stereo not drawn)

>  <className>
FALSE

$$$$
>  <compound>
Nc1nc(Cl)c2ncn(C3CC(CO)C3CO)c2n1 (stereo not drawn)

>  <className>
FALSE

$$$$
>  <compound>
OCC1CC(n2cc(Br)c3c(Cl)ncnc32)C1CO (stereo not drawn) [Example 67C]

>  <className>
TRUE

$$$$
>  <compound>
CC(=O)OCC1CC(n2cnc3c(=O)[nH]c(N)nc32)C1COC(C)=O (stereo not drawn)

>  <className>
TRUE

$$$$
>  <compound>
NCC1CC(n2cnc3c(Cl)ncnc32)C1 (stereo not drawn) [Example 21, hydrochloride]

>  <className>
FALSE

$$$$
>  <compound>
Nc1nc2c(ncn2C2CC(CO)C2CO)c(=O)[nH]1 (stereo not drawn)

>  <className>
TRUE

$$$$
